biological target: KRAS G12S (Homo sapiens (Human), UniProt P01116+P62937, G12S); test: Ras-Raf disruption/FRET/MOA assay (BRAF RBD, Cyclophilin A); assay type: biochemical; conditions: read-out: KRAS G12S FRET IC50
Sequence (P01116 other isoform, or with tags, fused parts or gaps G12S): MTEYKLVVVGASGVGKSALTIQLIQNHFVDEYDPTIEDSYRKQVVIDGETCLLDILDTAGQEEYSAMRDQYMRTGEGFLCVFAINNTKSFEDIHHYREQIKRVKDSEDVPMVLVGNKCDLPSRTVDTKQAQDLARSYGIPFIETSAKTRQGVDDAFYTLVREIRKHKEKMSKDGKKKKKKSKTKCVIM
Sequence (P62937 whole entry): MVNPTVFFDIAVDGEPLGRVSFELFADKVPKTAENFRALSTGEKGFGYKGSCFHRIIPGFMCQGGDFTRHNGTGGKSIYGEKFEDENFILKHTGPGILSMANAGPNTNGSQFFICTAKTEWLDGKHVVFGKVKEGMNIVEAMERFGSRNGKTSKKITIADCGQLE
pIC50: −log10 of the molar value.
metricName: pIC50

Please review the entries below; each comes with its answer.
compound: CCn1c(-c2cccnc2[C@H](C)OC)c2c3cc(ccc31)-c1csc(n1)C[C@H](NC(=O)[C@H](C(C)C)N(C)C(=O)N1CCN3CCOCC3C1)C(=O)N1CCC[C@H](N1)C(=O)OCC(C)(C)C2 (some centres unmarked)
pIC50: 6.00 to 7.00
//
compound: CCn1c(-c2cccnc2[C@H](C)OC)c2c3cc(ccc31)-c1csc(n1)C[C@H](NC(=O)[C@H](C(C)C)N(C)C(=O)N1CC3(CC(NCCOC)C3)C1)C(=O)N1CCC[C@H](N1)C(=O)OCC(C)(C)C2
pIC50: 6.00 to 7.00
//
compound: CCn1c(-c2cnccc2COC)c2c3cc(ccc31)-c1cc(O)cc(c1)C[C@H](NC(=O)[C@H](C(C)C)N(C)C(=O)[C@H]1CCN(C3COC3)C1)C(=O)N1CCC[C@H](N1)C(=O)OCC(C)(C)C2
pIC50: 6.00 to 7.00
//
compound: CO[C@@H](C)c1ncccc1-c1c2c3cc(ccc3n1C)-c1cc(O)cc(c1)C[C@H](NC(=O)[C@H](C(C)C)N(C)C(C)=O)C(=O)N1CCC[C@H](N1)C(=O)OCC(C)(C)C2
pIC50: < 5.00

Here is another compound to look at.
QUERY: If you can, please state the reported pIC50 value of `CCn1c(-c2cccnc2[C@H](C)OC)c2c3cc(ccc31)-c1csc(n1)C[C@H](NC(=O)[C@H](C(C)C)N(C)C(=O)N1CC3(CCOCC3)C1)C(=O)N1CCC[C@H](N1)C(=O)OCC(C)(C)C2` .
RESULT: 6.00 to 7.00

---

target: NRAS G12C (Homo sapiens (Human), UniProt P01111+P62937, G12C); experiment: Ras-Raf disruption/FRET/MOA assay (BRAF RBD, Cyclophilin A); format: biochemical; details: read-out: NRAS G12C FRET data IC50
Sequence (P01111 whole entry G12C): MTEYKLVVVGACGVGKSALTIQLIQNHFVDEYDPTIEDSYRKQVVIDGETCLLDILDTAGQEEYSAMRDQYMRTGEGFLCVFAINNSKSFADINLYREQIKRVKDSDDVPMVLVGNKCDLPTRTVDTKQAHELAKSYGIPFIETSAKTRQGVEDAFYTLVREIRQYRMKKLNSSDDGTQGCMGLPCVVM
Sequence (P62937 whole entry): as the sequence (P62937 whole entry) above
pIC50: −log10 of the molar value.
metricName: pIC50

QUERY: If you can, please state the reported pIC50 value of CCn1c(-c2cnccc2COC)c2c3cc(ccc31)-c1cc(O)cc(c1)C[C@H](NC(=O)[C@H](C(C)C)N(C)c1nccs1)C(=O)N1CCC[C@H](N1)C(=O)OCC(C)(C)C2 [Compound A86] .
RESULT: 5.00 to 6.00

QUERY: If you can, please state the reported pIC50 value of CCn1c(-c2cccnc2[C@H](C)OC)c2c3cc(ccc31)-c1cc(O)cc(c1)C[C@H](NC(=O)[C@H](C(C)C)N(C)C(=O)[C@H]1C[C@@H]1O)C(=O)N1CCC[C@H](N1)C(=O)OCC(C)(C)C2 [Compound A323] .
RESULT: > 8.00

QUERY: If you can, please state the reported pIC50 value of CCn1c(-c2cnccc2COC)c2c3cc(ccc31)-c1cc(O)cc(c1)C[C@H](NC(=O)[C@H](C(C)C)N(C)C(=O)C1CN(C)C1)C(=O)N1CCC[C@H](N1)C(=O)OCC(C)(C)C2 [Compound A88] .
RESULT: 6.00 to 7.00

---

tested on: NCI-H358 cells (K-Ras G12C); assay: CellTiter-Glo cell viability, NCI-H358; format: cell-based, human; details: Homo sapiens, NCI-H358, 120 h, K-Ras G12C, 5-day treatment; read-out: H358 Cell Viability IC50
pIC50: −log10 of the molar value.
Property: pIC50; scope: individual molecules

Please review the entries below; each comes with its answer.
molecule: CCn1c(-c2cccnc2[C@H](C)OC)c2c3cc(ccc31)-c1cc(O)cc(c1)C[C@H](NC(=O)[C@H](C(C)C)N(C)C(=O)C1CCC3(CCOC3)O1)C(=O)N1CCC[C@H](N1)C(=O)OCC(C)(C)C2 (stereo partly drawn)
subjectOfTest: NCI-H358 cells (K-Ras G12C)
metricName: pIC50
result: 6.00 to 7.00

molecule: CCn1c(-c2cccnc2[C@H](C)OC)c2c3cc(ccc31)-c1cc(O)cc(c1)C[C@H](NC(=O)[C@H](C(C)C)N(C)C(=O)N1CC(OC)C1)C(=O)N1CCC[C@H](N1)C(=O)OCC(C)(C)C2
subjectOfTest: NCI-H358 cells (K-Ras G12C)
metricName: pIC50
result: 7.00 to 8.00

QUERY: If you can, please state the reported pIC50 value of `CCn1c(-c2cccnc2[C@H](C)OC)c2c3cc(ccc31)-c1csc(n1)C[C@H](NC(=O)[C@H](C(C)C)N(C)C(=O)N1CC([C@H](C)N(C)C)C1)C(=O)N1CCC[C@H](N1)C(=O)OCC(C)(C)C2` .
RESULT: 7.00 to 8.00

QUERY: If you can, please state the reported pIC50 value of `CCn1c(-c2cccnc2[C@H](C)OC)c2c3cc(ccc31)-c1csc(n1)C[C@H](NC(=O)[C@H](C(C)C)N(C)C(=O)N1CC3(CC(NCCOC)C3)C1)C(=O)N1CCC[C@H](N1)C(=O)OCC(C)(C)C2` .
RESULT: 7.00 to 8.00

QUERY: If you can, please state the reported pIC50 value of `CCn1c(-c2cnccc2COC)c2c3cc(ccc31)-c1cc(O)cc(c1)C[C@H](NC(=O)[C@@H](OC(=O)N1CCCC1)C(C)C)C(=O)N1CCC[C@H](N1)C(=O)OCC(C)(C)C2` .
RESULT: 5.00 to 6.00

QUERY: If you can, please state the reported pIC50 value of `CCn1c(-c2cccnc2[C@H](C)OC)c2c3cc(ccc31)-c1csc(n1)C[C@H](NC(=O)[C@H](C(C)C)N(C)C(=O)N1CC(OC(F)(F)F)C1)C(=O)N1CCC[C@H](N1)C(=O)OCC(C)(C)C2` .
RESULT: 7.00 to 8.00

QUERY: If you can, please state the reported pIC50 value of `CCn1c(-c2cccnc2[C@H](C)OC)c2c3cc(ccc31)-c1cc(O)cc(c1)C[C@H](NC(=O)[C@H](C(C)C)N(C)C(=O)C13CCC(CO1)C3)C(=O)N1CCC[C@H](N1)C(=O)OCC(C)(C)C2` .
RESULT: 6.00 to 7.00

QUERY: If you can, please state the reported pIC50 value of `CCn1c(-c2cccnc2[C@H](C)OC)c2c3cc(ccc31)-c1csc(n1)C[C@H](NC(=O)[C@H](C(C)C)N(C)C(=O)N1CC(O)(COC)C1)C(=O)N1CCC[C@H](N1)C(=O)OCC(C)(C)C2` .
RESULT: 7.00 to 8.00

QUERY: If you can, please state the reported pIC50 value of `CCn1c(-c2cccnc2[C@H](C)OC)c2c3cc(ccc31)-c1cc(O)cc(c1)C[C@H](NC(=O)[C@H](C(C)C)N(C)C(=O)[C@H]1CCC(=O)O1)C(=O)N1CCC[C@H](N1)C(=O)OCC(C)(C)C2` .
RESULT: 5.00 to 6.00

---

Property: IC50; scope: individual compounds
target: KRAS G12D (Homo sapiens (Human), UniProt P01116+P62937, G12D); assay: Ras-Raf disruption/FRET/MOA assay (BRAF RBD, Cyclophilin A); assay type: biochemical; settings: read-out: KRAS G12D FRET IC50
Sequence (P01116 other isoform, or with tags, fused parts or gaps G12D): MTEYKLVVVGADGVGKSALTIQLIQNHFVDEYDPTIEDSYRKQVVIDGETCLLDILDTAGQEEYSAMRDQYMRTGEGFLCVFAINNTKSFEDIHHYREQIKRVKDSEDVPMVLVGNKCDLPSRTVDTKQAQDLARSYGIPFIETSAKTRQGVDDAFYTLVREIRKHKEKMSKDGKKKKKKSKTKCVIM
Sequence (P62937 whole entry): as the sequence (P62937 whole entry) above

Please review the entries below; each comes with its answer.
compound: CCn1c(-c2cccnc2[C@H](C)OC)c2c3cc(ccc31)-c1cc(O)cc(c1)C[C@H](NC(=O)[C@H](C(C)C)N(C)C(=O)[C@@H]1CCCC[C@@H]1N)C(=O)N1CCC[C@H](N1)C(=O)OCC(C)(C)C2
result: 10 to 100 nM
--
compound: CCn1c(-c2cccnc2[C@H](C)OC)c2c3cc(ccc31)-c1cc(O)cc(c1)C[C@H](NC(=O)[C@H](C(C)C)N(C)C(=O)C1(CN)CC1)C(=O)N1CCC[C@H](N1)C(=O)OCC(C)(C)C2
result: 10 to 100 nM
--
compound: CCn1c(-c2cccnc2[C@H](C)OC)c2c3cc(ccc31)-c1cc(O)cc(c1)C[C@H](NC(=O)[C@H](C(C)C)N(C)C(=O)C13CCC(CO1)C3)C(=O)N1CCC[C@H](N1)C(=O)OCC(C)(C)C2 [Compound A411]
result: 100 to 1000 nM

Here is another compound to look at.
QUERY: IC50 of CCn1c(-c2cccnc2[C@H](C)OC)c2c3cc(ccc31)-c1csc(n1)C[C@H](NC(=O)[C@H](C(C)C)N1CCC3(CCN(C)C3)C1=O)C(=O)N1CCC[C@H](N1)C(=O)OCC(C)(C)C2 (stereo partly shown) on KRAS G12D (Homo sapiens (Human), UniProt P01116+P62937, G12D)?
RESULT: 1000 to 10000 nM
